I'd be grateful if you could share measured CC50 for these entries.
System: BT-549
Test: NCI human tumor cell panel
Assay type: cell-based
Details: BT-549, read-out: Log10 LC50 (converted)

Known results for molecules:
1. OCc1ccc(-c2ccc(-c3cccs3)[se]2)s1 : > 100 µM
2. OCc1ccc(-c2ccc(-c3ccc(CO)[se]3)[se]2)[se]1 : > 100 µM
3. O=Cc1ccc(-c2ccc(-c3ccc[se]3)[se]2)[se]1 : 79.4 µM
4. O=Cc1ccc(-c2ccc(-c3ccc(C=O)[se]3)[se]2)[se]1 : > 100 µM
5. O=Cc1ccc(-c2ccc(-c3ccc(C=O)s3)[se]2)s1 : > 100 µM

Please turn your attention to the following entry.
Qu. For the molecule shown here, OCc1ccc(-c2ccc(-c3ccc(CO)[se]3)s2)s1 , give the reported CC50.
Ans. > 100 µM
